Target: SARS-CoV-2 Main Protease (SARS-CoV-2) (UniProt P0DTD1)
Conditions: 50.0 µM
What inhibition was measured for each of the following?
Give bare numbers, in %.

As a guide, the following entries are already answered.
Dear colleague, please send me the reported inhibition for C=CC(=O)N(c1cc(C(C)(C)C)on1)C(C(=O)NCCc1cccc(F)c1)c1cccnc1 (stereo unspecified) when you can. 100

Dear colleague, please send me the reported inhibition for `COC1CCN(c2ccc(S(N)(=O)=O)cc2)CC1` when you can. 35.4

Dear colleague, please send me the reported inhibition for C=CC(=O)Nc1cccc(OC2CC(=O)N2)c1 (stereo unspecified) when you can. 2.88

Please give inhibition, item by item, for the list that follows.
1. Cc1nc(CCn2c(C3CCC(=O)N3)nnc2N2CCOC(C)(C)C2)n[nH]1 (stereo unspecified)
2. O=C(Cc1cccc(Cl)c1)N[C@H]1CCNC1=O (stereo in doubt)
3. CCOCC1CCN(c2ccc(S(N)(=O)=O)cc2)CC1

[4.69, 0, 44.6]
